Form field: % Inhibition at 50 mg/kg (peroral) (one value per entry).
system: rat carrageenan paw edema; test: Rat carrageenan paw edema; type: in vivo, rat (Sprague-Dawley); details: Table 5; 50 mg/kg peroral, 1 hour prior to carrageenan; edema at 3 hours
measured-quantity: % Inhibition at 50 mg/kg (peroral) (%)

{"columns": ["compound", "measured-quantity", "unit-of-measurement", "reported-measurement"],
 "data": [
  ["CCOC(CNCCCCCCCCCCCOc1ccccc1)OCC.Cl", "% Inhibition at 50 mg/kg (peroral)", "%", 34],
  ["CCCCC(CO)NCCCCCCc1ccccc1.Cl (stereo not drawn)", "% Inhibition at 50 mg/kg (peroral)", "%", 34],
  ["CCCCCCCCCCCCCCCCCCNC(CO)CCCC.Cl (stereo not drawn)", "% Inhibition at 50 mg/kg (peroral)", "%", 26],
  ["Cl.OC[C@@H]1CCCN1CCCCCCCCCCCOc1ccccc1", "% Inhibition at 50 mg/kg (peroral)", "%", 26],
  ["CCCC[C@@H](CO)NCCCCCCCCc1ccccc1.Cl", "% Inhibition at 50 mg/kg (peroral)", "%", 25],
  ["CCCCC(CO)NCCCCCCCCCCc1ccccc1.Cl (stereo not drawn)", "% Inhibition at 50 mg/kg (peroral)", "%", 39]
]}
